Every entry's value here was drawn from the supplement of paper PMC6555819.

System: PPARg:RXRa (NR concentration 180 nM, RXRa partner concentration 90 nM)
Assay: PBM binding z-score (relative to random genomic background probes); higher = stronger binding; sequences stand for … in GC…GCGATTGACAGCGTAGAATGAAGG
Quick rule for you: PBM binding z-score at 2 or higher means condition met, lower means condition not met.

Use these answered entries as a reference point.
ATCGAAAGGTCGAGATGAGTATAGAGAAAGGGAA    condition met
TAGCCTAGGTCCTGGGCCAGTATACCACGCGAAC    condition not met

[Q] Hi, just wondering whether "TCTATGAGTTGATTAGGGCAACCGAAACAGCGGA" shows PBM binding z-score of 2 or higher.
[A] condition not met

[Q] Hi, just wondering whether "TCTTGTAGATCAAGTAGGTTAAGAAAGCCTGAGT" shows PBM binding z-score of 2 or higher.
[A] condition not met

[Q] Hi, just wondering whether "TCATATAGGTAAATGCTAGGGGAAAGTCCGATCT" shows PBM binding z-score of 2 or higher.
[A] condition not met

[Q] Hi, just wondering whether "TCATATACGTAAACAGGTGAAAGTCCGTAAGTTA" shows PBM binding z-score of 2 or higher.
[A] condition not met

[Q] Hi, just wondering whether "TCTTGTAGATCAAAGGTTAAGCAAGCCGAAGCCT" shows PBM binding z-score of 2 or higher.
[A] condition met

[Q] Hi, just wondering whether "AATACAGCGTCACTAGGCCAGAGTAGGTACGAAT" shows PBM binding z-score of 2 or higher.
[A] condition not met

[Q] Hi, just wondering whether "AGTCAAAGTTCAGTACGAGGTAACGTAAAGCACG" shows PBM binding z-score of 2 or higher.
[A] condition met

[Q] Hi, just wondering whether "TCATATAGATAAAGGTGAAAGTCGAACGATATGA" shows PBM binding z-score of 2 or higher.
[A] condition met

[Q] Hi, just wondering whether "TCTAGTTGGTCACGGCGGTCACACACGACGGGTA" shows PBM binding z-score of 2 or higher.
[A] condition not met

[Q] Hi, just wondering whether "AGTCAAAGTTCAGGACAAGGTAACGTAAAGCACG" shows PBM binding z-score of 2 or higher.
[A] condition met

[Q] Hi, just wondering whether "CCTACTGGGCCACGAAAGGTCATTGTTTCAGTGA" shows PBM binding z-score of 2 or higher.
[A] condition met

[Q] Hi, just wondering whether "CCGACTGGGGCAAAGGTGACCATACTCAGTACGA" shows PBM binding z-score of 2 or higher.
[A] condition met

[Q] Hi, just wondering whether "GCTAGCAGGTCATTTGGGTCACTCAATGACGGGC" shows PBM binding z-score of 2 or higher.
[A] condition met

[Q] Hi, just wondering whether "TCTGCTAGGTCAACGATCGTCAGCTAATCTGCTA" shows PBM binding z-score of 2 or higher.
[A] condition met

[Q] Hi, just wondering whether "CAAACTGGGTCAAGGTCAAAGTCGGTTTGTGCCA" shows PBM binding z-score of 2 or higher.
[A] condition met

[Q] Hi, just wondering whether "ATCTCTAGGTAAAAGTTGAGTGAATCCCGAGGAT" shows PBM binding z-score of 2 or higher.
[A] condition met

[Q] Hi, just wondering whether "CGAACTAGGTCATCCAGGACAGTGATTACATTGA" shows PBM binding z-score of 2 or higher.
[A] condition met

[Q] Hi, just wondering whether "ACAGACACGTGATGAAGGTAACTCAGGCTATCAT" shows PBM binding z-score of 2 or higher.
[A] condition not met

[Q] Hi, just wondering whether "TCATATAGGTAACTGCTAGGTGAAAGTCCGATCT" shows PBM binding z-score of 2 or higher.
[A] condition not met

[Q] Hi, just wondering whether "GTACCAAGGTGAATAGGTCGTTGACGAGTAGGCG" shows PBM binding z-score of 2 or higher.
[A] condition not met
